Experiment: antimalarial activity against Dd2 strain (AID 2302)
Conditions: P. falciparum Dd2 in RBCs, LDH growth readout, 72 h; at 2 µM; active compounds read high
Returns one of Yes or No; Yes when growth inhibition is >= 80%.

INSERT INTO results (molecule, class) VALUES
  ('COc1ccc(Br)cc1C1[C@@H]2C(=O)N(c3ccc(Br)cc3)C(=O)[C@@H]2C2(C(=O)O)CC(OCc3ccccc3)CN12 (some centres not stated)', 'Yes'),
  ('NC1CCN(Cc2cccc(-c3ccc(-c4nc5ccc(C(F)(F)F)cc5[nH]4)cc3)c2)C1 (configuration not stated)', 'Yes'),
  ('C=Cc1ccc(-c2c(C)[nH]c(C)c(Br)c2=O)cc1', 'Yes'),
  ('O=C(Nc1ccccc1)c1ccc(N2CCC(COc3cccc(C(F)(F)F)c3)CC2)nc1', 'Yes'),
  ('COc1cccc(CNC[C@@H](O)[C@H](Cc2ccccc2)NC(=O)c2cc(OC(C)C)cc(N3CCCCS3(=O)=O)c2)c1', 'No'),
  ('O=C(/C=C/c1ccc(Cl)c(Cl)c1)NCCCCCN1CCN(C(=O)Nc2cccc(F)c2)CC1', 'No'),
  ('CC1CN(c2cc(=O)n(Cc3ccc(NC(=O)Nc4ccc(-c5ccccc5)cc4)cc3)cn2)CC(C)N1 (configuration not stated)', 'No'),
  ('O=C(c1ccc(Cl)cc1)C1CCN(CCCOc2ccc3c(c2)CCNCC3)CC1', 'No'),
  ('CCN(CC)CCNc1ccnc2[nH]c3ccc(I)cc3c12', 'Yes'),
  ('CCc1ccc(C2CCN(CCCCNC(=O)c3ccc(NC(=O)c4ccc(Cl)cc4)cc3)CC2)c(OC(C)=O)c1', 'Yes'),
  ('O=C(NC1CCC1)C1CCN(C(c2ccc(Cl)cc2)c2ccc(Cl)cc2)CC1', 'No'),
  ('Cc1cccc2[nH]c(-c3ccc(-c4ccc(NC(=O)C(C)CN(C)C)cc4)cc3)nc12 (configuration not stated)', 'Yes'),
  ('COc1ccc(-c2cccc(NC(=O)c3ccc(F)cc3)c2)cc1CN1CCCN(C)CC1', 'No'),
  ('CCNc1cc(C(=O)N[C@@H](Cc2ccccc2)[C@H](O)CNCc2cccc(OC)c2)c(OC)c(N2CCCCS2(=O)=O)c1', 'Yes'),
  ('COCCN1CCC(CN(C)CC(C)(C)c2nc(-c3ccc(Cl)c(O)c3)c(-c3ccncc3)[nH]2)CC1', 'No'),
  ('CC(=O)Oc1ccc(C(=O)Oc2ccccc2C#CC#N)cc1OC(C)=O', 'No'),
  ('CCc1cn2c3c(cc(C(=O)N[C@@H](Cc4ccccc4)[C@H](O)CNC(C)C)cc13)N(C)S(=O)(=O)C2', 'Yes'),
  ('CC(CO)(CO)NCc1cc2c3ccccc3c(CNC(C)(CO)CO)cc2c2ccccc12', 'Yes'),
  ('CCCc1ccc(NC(=O)c2ccc(CN3CCCN(CC4CCCCC4)CC3)cc2)cc1', 'No'),
  ('Oc1ccc(CCNc2nc(NCCOc3cccc4ccccc34)nc(N3CCNCC3)n2)cc1', 'No'),
  ('Cc1cc(C(F)(F)F)n2nc(C(=O)N(Cc3cncn3Cc3ccccc3F)CC3CC3)cc2n1', 'Yes'),
  ('C=CCn1c(=N)c(C(=O)NC2CCCCC2)cc2c(=O)n3cccc(C)c3nc21', 'No'),
  ('O=C(/C=C/c1ccccc1Cl)NC1CCC(CN2CCC(c3c[nH]c4ccncc34)CC2)CC1 (configuration not stated)', 'Yes'),
  ('COCc1nc(N)nc(N)c1-c1ccc(Cl)c(Cl)c1', 'No'),
  ('CCOc1c(OC)ccc2c1CCN(CCN1CCC(CNC(=O)c3ccc(-c4ccc(C#N)cc4)cc3)CC1)C2', 'No'),
  ('N#Cc1ccccc1C(=O)N(Cc1cncn1Cc1cccc(F)c1)CC1CC1', 'Yes'),
  ('N#Cc1ccc(N2CCN(Cc3cccc(-c4ccc(-c5nc6ccccc6[nH]5)cc4)c3)CC2)nc1', 'No'),
  ('O=C(NC1CCN(Cc2ccccc2)CC1)c1cccc(-c2cc3cc(Cl)c(Cl)cc3[nH]2)c1', 'Yes'),
  ('COc1cc(Cc2cnc(N)nc2N)ccc1OCc1ccc(-c2ccccc2C#N)cc1', 'No'),
  ('CCCCCOc1ccc(NC2=CC(=O)C(=O)c3ccccc32)cc1', 'Yes'),
  ('COc1ccc2nccc([C@@H](O)CN3CCC(NCc4ccc5scnc5c4)CC3)c2c1', 'Yes'),
  ('CCCN(Cc1nnc(-c2cccs2)o1)C(=O)C1COc2ccccc2O1 (configuration not stated)', 'No'),
  ('O=C(Cc1ccccc1)NC(CCN1CCC(NC(=O)c2ccc(Cl)cc2)CC1)c1ccc(Cl)c(Cl)c1 (configuration not stated)', 'No'),
  ('CSc1ccc(CN2CCC(NC(=O)c3ccc(-c4cccc(Cl)c4)s3)CC2)cc1', 'No'),
  ('NC(=O)COc1c(C2CCN(CCN3CCC(CNC(=O)c4ccc(-c5ccc(C(F)(F)F)cc5)cc4)CC3)CC2)ccc2c1CCCC2', 'No'),
  ('COc1ccccc1-c1csc(C(=O)NC2CCCCN(Cc3ccc(C(C)(C)C)cc3)C2)c1 (configuration not stated)', 'No'),
  ('N#Cc1ccc(C(=O)Nc2cccc(-c3ccc(CN4CCCC4)cc3)c2)cc1', 'No');
